System: Enterococcus faecalis
procedure.summary: Antibiotic activity against vancomycin resistant Enterococcus faecalis NJ3 assessed as inhibition of bacterial growth incubated for 16 hrs by microtiter broth dilution method
Assay type: functional
quantity.name: MIC (µg/mL)
Write the answer as a number in µg/mL, unit excluded.

Example entries begin here.
CCCCCCc1c(O)c(Cl)cc2c1OC1(C2=O)C(Cl)=C(Cl)C(=O)N1C (stereo not drawn)	8
C=CCN1C(=O)C(Cl)=C(Cl)C12Oc1c(cc(Cl)c(O)c1CCCCCC)C2=O (stereo not drawn)	8

Here is the next item to consider.
Quick one: MIC for CCCCCCCCCCCCN1C(=O)C(Cl)=C(Cl)C12Oc1c(cc(Cl)c(O)c1CCCCCC)C2=O (stereo not drawn) ? 8

Reference source for all entries: ChEMBL document CHEMBL5104117
